Entries and their IC50 values follow.
Target entity: GABA B receptor (Rattus norvegicus, UniProt O88871+Q9Z0U4)
Sequence (Q9Z0U4 whole entry): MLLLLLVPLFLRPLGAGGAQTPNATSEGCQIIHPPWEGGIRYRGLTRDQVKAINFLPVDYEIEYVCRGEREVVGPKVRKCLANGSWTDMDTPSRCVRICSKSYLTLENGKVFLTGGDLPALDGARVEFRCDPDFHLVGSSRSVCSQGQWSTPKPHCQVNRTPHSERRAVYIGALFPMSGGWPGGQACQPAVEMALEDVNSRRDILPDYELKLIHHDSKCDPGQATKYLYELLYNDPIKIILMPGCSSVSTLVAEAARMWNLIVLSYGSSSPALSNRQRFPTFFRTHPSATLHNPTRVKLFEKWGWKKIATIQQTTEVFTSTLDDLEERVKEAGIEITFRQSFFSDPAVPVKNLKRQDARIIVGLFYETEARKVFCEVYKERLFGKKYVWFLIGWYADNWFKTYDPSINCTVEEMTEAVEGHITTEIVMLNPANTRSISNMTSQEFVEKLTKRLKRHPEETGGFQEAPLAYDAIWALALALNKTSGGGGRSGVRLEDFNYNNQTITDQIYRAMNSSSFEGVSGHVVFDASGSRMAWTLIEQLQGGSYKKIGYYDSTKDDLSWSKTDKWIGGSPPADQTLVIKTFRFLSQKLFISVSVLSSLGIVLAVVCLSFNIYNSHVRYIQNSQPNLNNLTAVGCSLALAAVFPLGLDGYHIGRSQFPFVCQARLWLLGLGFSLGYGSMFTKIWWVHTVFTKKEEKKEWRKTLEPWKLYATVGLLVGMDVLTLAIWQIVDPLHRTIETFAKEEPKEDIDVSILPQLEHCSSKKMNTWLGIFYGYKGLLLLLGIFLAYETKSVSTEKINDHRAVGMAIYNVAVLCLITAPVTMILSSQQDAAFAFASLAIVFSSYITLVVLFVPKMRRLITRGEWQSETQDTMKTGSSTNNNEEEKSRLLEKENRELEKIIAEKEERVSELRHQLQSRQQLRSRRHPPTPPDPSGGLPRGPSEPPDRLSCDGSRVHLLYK
Sequence (O88871 whole entry): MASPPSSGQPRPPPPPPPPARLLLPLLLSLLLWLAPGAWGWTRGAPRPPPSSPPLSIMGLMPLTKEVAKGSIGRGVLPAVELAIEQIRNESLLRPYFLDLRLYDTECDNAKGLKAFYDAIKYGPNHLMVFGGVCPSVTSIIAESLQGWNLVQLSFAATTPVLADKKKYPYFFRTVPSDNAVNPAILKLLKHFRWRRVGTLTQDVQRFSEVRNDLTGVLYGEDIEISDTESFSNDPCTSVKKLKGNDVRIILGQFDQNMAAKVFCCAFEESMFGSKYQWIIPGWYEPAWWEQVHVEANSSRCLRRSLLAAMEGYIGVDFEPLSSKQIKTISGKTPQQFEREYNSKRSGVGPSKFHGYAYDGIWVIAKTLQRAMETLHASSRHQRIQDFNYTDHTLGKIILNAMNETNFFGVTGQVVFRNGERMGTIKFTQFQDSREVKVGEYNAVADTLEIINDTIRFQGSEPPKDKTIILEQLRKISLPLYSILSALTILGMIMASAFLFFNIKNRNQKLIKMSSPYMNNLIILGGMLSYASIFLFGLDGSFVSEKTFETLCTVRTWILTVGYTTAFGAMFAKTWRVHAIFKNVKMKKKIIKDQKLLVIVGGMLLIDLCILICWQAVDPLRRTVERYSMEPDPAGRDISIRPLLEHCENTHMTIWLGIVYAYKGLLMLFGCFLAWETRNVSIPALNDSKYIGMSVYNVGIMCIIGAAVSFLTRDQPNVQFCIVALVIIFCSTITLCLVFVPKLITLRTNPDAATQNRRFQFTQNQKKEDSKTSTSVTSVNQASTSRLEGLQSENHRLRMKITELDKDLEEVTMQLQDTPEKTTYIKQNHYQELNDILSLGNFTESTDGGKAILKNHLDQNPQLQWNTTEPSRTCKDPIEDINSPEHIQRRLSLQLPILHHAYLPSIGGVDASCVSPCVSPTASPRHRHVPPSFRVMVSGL
Experiment: In vitro displacement of [3H]GABA from Gamma-aminobutyric acid type B receptor sites in rat brain membranes
Express it in nM; write the number only.

**Query** What value of measured IC50 is listed for "NCCCP(=O)(O)O" ?
**Result** 2000

**Query** Next compound: "CCCCCCP(=O)(O)CCCN"
**Result** 1000

More entries:
**Query** What value of measured IC50 is listed for "CCOC(OCC)P(=O)(O)CCCN" ?
**Result** 2500

**Query** Next compound: NCCCS(=O)(=O)O [TRAMIPROSATE]
**Result** 2000

**Query** Next compound: "CCP(=O)(O)CCCN"
**Result** 3000

**Query** Next compound: "NCCC[PH](=O)O"
**Result** 3
